Test system: Escherichia coli
Assay: Antimicrobial activity against Escherichia coli HB101 harboring empty vector pBK-SK by broth macrodilution method
Format: functional
recorded-metric: MIC (µg/mL)
Please reply with the bare figure in µg/mL and do not write the unit itself.

Below, 4 compounds whose answers are already recorded.
1) CCN1CCN(C(=O)N[C@@H](C(=O)N[C@@H]2C(=O)N3[C@@H]2SC(C)(C)[C@@H]3C(=O)O)c2ccccc2)C(=O)C1=O [PIPERACILLIN] :: 32
2) CO/N=C(\C(=O)N[C@@H]1C(=O)N2C(C(=O)[O-])=C(C[N+]3(C)CCCC3)CS[C@H]12)c1csc(N)n1 :: 1
3) Cc1nnc(SCC2=C(C(=O)O)N3C(=O)[C@@H](NC(=O)Cn4cnnn4)[C@H]3SC2)s1 [CEFAZOLIN] :: 4
4) C[C@H]1[C@H](NC(=O)/C(=N\OC(C)(C)C(=O)O)c2csc(N)n2)C(=O)N1S(=O)(=O)O [AZTREONAM] :: 64

Now for the compound whose MIC we want.
Challenge: Determine from records and report MIC for CO/N=C(\C(=O)N[C@@H]1C(=O)N2C(C(=O)O)=C(COC(C)=O)CS[C@H]12)c1csc(N)n1 [CEFOTAXIME]
Response given: 4

The measurements presented in this section are drawn from ChEMBL document CHEMBL1255252.
